# System: SK-MEL-2 melanoma
# ASSAY DETAILS: NCI tumour cell line growth inhibition, 48 h

{"MOLECULE": "Cc1nc2ccc(N)cc2[nH]c1=O", "TGI": "> 100 µM"}
{"MOLECULE": "COc1cccc(/C=C\\c2ccnc3ccccc23)c1", "TGI": "> 10 µM"}
{"MOLECULE": "CCCCc1ccc(Nc2nc(Cl)c3ncn(C4CC(Oc5ccc(C)cc5)C(COc5ccc(C)cc5)O4)c3n2)cc1 (stereo not given)", "TGI": "> 100 µM"}
{"MOLECULE": "O=c1c2ccccc2nc2sc(/N=C/C=C/c3ccccc3)nn12", "TGI": "> 100 µM"}
{"MOLECULE": "COC(=O)N/N=C(/c1nc2ccc([N+](=O)[O-])cc2[nH]c1=O)C(O)c1ccc(OC)c(OC)c1 (stereo not given)", "TGI": "> 100 µM"}
{"MOLECULE": "COC(=O)[C@@H]1COC(C(C)(C)C)N1C(=O)C(c1ccccc1)c1ccccc1 (stereo not given in full)", "TGI": "> 100 µM"}
{"MOLECULE": "Oc1cccc(-c2nc(-c3ccccc3)[nH]c2-c2ccncc2)c1", "TGI": "18.9 µM"}
{"MOLECULE": "CC1(C=O)CCC23COC4(CCC5C6(C)CCC(OC7OCC(OC8OC(CO)C(O)C(OC9OC(CO)C(O)C(O)C9O)C8OC8OCC(O)C(O)C8O)C(O)C7OC7OC(CO)C(O)C(O)C7O)C(C)(C)C6CCC5(C)C4(C)CC2O)C3C1 (stereo not given)", "TGI": "2.98 µM"}
{"MOLECULE": "c1ccc2c(c1)N=C(c1ccc3ccccc3c1)CC(c1cccc3ccccc13)S2 (stereo not given)", "TGI": "> 100 µM"}
{"MOLECULE": "c1ccc([P+](c2ccccc2)(c2ccccc2)c2ccc(-c3ccc([P+](c4ccccc4)(c4ccccc4)c4ccccc4)cc3)cc2)cc1", "TGI": "62 µM"}
{"MOLECULE": "CC(=O)Oc1ccc(/C=C/C(=O)OCCOC(=O)/C=C/c2ccc(OC(C)=O)c(OC(C)=O)c2)cc1OC(C)=O", "TGI": "55.6 µM"}
{"MOLECULE": "COC1=CC2CCN3Cc4cc5c(cc4C(C1O)C23)OCC5 (stereo not given)", "TGI": "> 43 µM"}
{"MOLECULE": "CNCCNc1nc2ccccc2c2c(=O)c3cccc(C)c3sc12", "TGI": "3.36 µM"}
{"MOLECULE": "O=C(CSc1nc2ccc(I)cc2c(=O)n1Cc1ccccc1)NN1C(=O)c2ccccc2C1=O", "TGI": "28.4 µM"}
{"MOLECULE": "CCSc1nnc(-c2ccccc2)nc1Cc1ccc(OC)cc1", "TGI": "> 100 µM"}
{"MOLECULE": "CC12CC(=O)C3C(CCC4=CC(=O)CCC43C)C1CC=C2CC(=O)O (stereo not given)", "TGI": "> 100 µM"}
{"MOLECULE": "COC(=O)/C=C(\\C)CC/C=C(\\C)CCC(O)C(C)(C)O (stereo not given)", "TGI": "36.3 µM"}
{"MOLECULE": "CCc1ccc(/C=C/C(=O)C2CN(CC)CCC2(O)/C=C/c2ccc(CC)cc2)cc1 (stereo not given)", "TGI": "18.7 µM"}
{"MOLECULE": "O=C1NC(=O)C(c2c[nH]c3ccccc23)=C1c1ccccc1", "TGI": "> 25 µM"}
{"MOLECULE": "CCCc1n(Cc2ccc3ccccc3n2)cc[n+]1Cc1ccc2ccccc2n1", "TGI": "5.68 µM"}
{"MOLECULE": "CC(=O)NC(CCCNC(=O)OCc1ccccc1)C(=O)O (stereo not given)", "TGI": "> 100 µM"}
{"MOLECULE": "CCOC(=O)c1c2ccc(/C=C/c3ccccc3)ccc-2c(C(=O)OCC)c1N", "TGI": "> 100 µM"}
{"MOLECULE": "CC1(O)COCCCCOc2c(CN)cccc2NC(=O)c2nc(cnc2N)-c2ccc(cc2)S(=O)(=O)C(C)(C)C1 (stereo not given)", "TGI": "3.36 µM"}
{"MOLECULE": "CCO[C@]12CCC[C@H]1[C@@H]1C(=O)c3ccccc3C(=O)C1=C(C)O2", "TGI": "> 100 µM"}
{"MOLECULE": "CC(=O)OCC1OC(Oc2cc(C)c(O)cc2C/C=C(\\C)CC/C=C(\\C)C[C@@H](C=C(C)C)OC(C)=O)C(O)C(OC(C)=O)C1OC(C)=O (stereo not given in full)", "TGI": "> 50 µM"}
